test system: Escherichia coli; assay: Anti-infective activity against Escherichia coli ATCC 35210 assessed as reduction in bacterial growth by microdilution method; format: functional
Listing of entries alongside the reported MBC.
Provide only the numeric value, understood in µg/mL.

Consider the reported MBC for these molecules:
molecule	outcome measure	observed result
O=C1CSC(c2ccc(Cl)cc2Cl)N1c1nc2ccc(OC(F)(F)F)cc2s1 (racemic)	MBC	250
COc1ccc(C2SCC(=O)N2c2nc3ccc(OC(F)(F)F)cc3s2)cc1 (racemic)	MBC	500
O=C1CSC(c2ccc(F)cc2)N1c1nc2ccc(OC(F)(F)F)cc2s1 (racemic)	MBC	250
O=C1CSC(c2c(Cl)cccc2Cl)N1c1nc2ccc(OC(F)(F)F)cc2s1 (racemic)	MBC	250

Complete the entry with MBC for CC1(C)S[C@@H]2[C@H](NC(=O)[C@H](N)c3ccccc3)C(=O)N2[C@H]1C(=O)O [AMPICILLIN]
200

Respond only with MBC recorded for O=C1CSC(c2cccc(Cl)c2Cl)N1c1nc2ccc(OC(F)(F)F)cc2s1 (racemic)
250

Report MBC for O=C1CSC(c2c(F)cccc2F)N1c1nc2ccc(OC(F)(F)F)cc2s1 (racemic)
250

Identify measured MBC corresponding to CN[C@@H]1[C@H](O[C@H]2[C@H](O[C@H]3[C@H](O)[C@@H](O)[C@H](N=C(N)N)[C@@H](O)[C@@H]3N=C(N)N)O[C@@H](C)[C@]2(O)C=O)O[C@@H](CO)[C@H](O)[C@H]1O [STREPTOMYCIN]
200

---

test system: Escherichia coli; assay: Anti-infective activity against Escherichia coli ATCC 35210 assessed as reduction in bacterial growth by microdilution method; type: functional
outcome measure: MBC (µg/mL)
Give the number; µg/mL is assumed, so skip it.

Use these answered entries as a reference point.
>>> df
                                   molecule  observed_result
0  O=C1CSC(c2ccc(Cl)cc2)N1c1nc2ccc(OC(F)(F)F)cc2s1 (racemic)              250
1  O=C1CSC(c2ccc(O)cc2)N1c1nc2ccc(OC(F)(F)F)cc2s1 (racemic)              250
2  O=C1CSC(c2c(F)cccc2Cl)N1c1nc2ccc(OC(F)(F)F)cc2s1 (racemic)              500

Here is another molecule to look at.
Please indicate MBC recorded for O=C1CSC(c2ccc([N+](=O)[O-])cc2)N1c1nc2ccc(OC(F)(F)F)cc2s1 (racemic)
250

---

test system: Pseudomonas aeruginosa; experiment: Anti-infective activity against Pseudomonas aeruginosa ATCC 27853 assessed as reduction in bacterial growth by microdilution method; format: functional
MIC listing for selected molecules.
Numeric answer only, unit µg/mL assumed.

Study these solved cases before continuing.
molecule	value unit	MIC
O=C1CSC(c2c(F)cccc2F)N1c1nc2ccc(OC(F)(F)F)cc2s1 (racemic)	µg/mL	250
O=C1CSC(c2c(F)cccc2Cl)N1c1nc2ccc(OC(F)(F)F)cc2s1 (racemic)	µg/mL	500
O=C1CSC(c2c(Cl)cccc2Cl)N1c1nc2ccc(OC(F)(F)F)cc2s1 (racemic)	µg/mL	250
O=C1CSC(c2ccc([N+](=O)[O-])cc2)N1c1nc2ccc(OC(F)(F)F)cc2s1 (racemic)	µg/mL	250

Query molecule follows.
Give MIC for the following molecule: CC1(C)S[C@@H]2[C@H](NC(=O)[C@H](N)c3ccccc3)C(=O)N2[C@H]1C(=O)O
100

---

Catalogue of MIC values
tested on: Pseudomonas aeruginosa; experiment: Anti-infective activity against Pseudomonas aeruginosa ATCC 27853 assessed as reduction in bacterial growth by microdilution method; type: functional
Note: unit mg/L is implicit; provide only the numeric part.

                                   compound  observed_result
0  O=C1CSC(c2cccc(Cl)c2Cl)N1c1nc2ccc(OC(F)(F)F)cc2s1 (racemic)              250
1  O=C1CSC(c2ccc(O)cc2)N1c1nc2ccc(OC(F)(F)F)cc2s1 (racemic)              120

# context switch: different compound, same MIC
Consider the compound COc1ccc(C2SCC(=O)N2c2nc3ccc(OC(F)(F)F)cc3s2)cc1 (racemic) . State its measured MIC.
250

---

system: Listeria monocytogenes; assay: Anti-infective activity against Listeria monocytogenes NCTC 7973 assessed as reduction in bacterial growth by microdilution method; assay type: functional
outcome measure: MBC (µg/mL)
Express the result in µg/mL but write the number alone.

Worked cases, answers included:
compound	MBC [µg/mL]
O=C1CSC(c2ccc(F)cc2)N1c1nc2ccc(OC(F)(F)F)cc2s1 (racemic)	500
O=C1CSC(c2cccc(Cl)c2Cl)N1c1nc2ccc(OC(F)(F)F)cc2s1 (racemic)	250
CC1(C)S[C@@H]2[C@H](NC(=O)[C@H](N)c3ccccc3)C(=O)N2[C@H]1C(=O)O [AMPICILLIN]	300
O=C1CSC(c2c(F)cccc2Cl)N1c1nc2ccc(OC(F)(F)F)cc2s1 (racemic)	500
O=C1CSC(c2ccc(Cl)cc2)N1c1nc2ccc(OC(F)(F)F)cc2s1 (racemic)	500
O=C1CSC(c2ccc([N+](=O)[O-])cc2)N1c1nc2ccc(OC(F)(F)F)cc2s1 (racemic)	500
O=C1CSC(c2ccc(O)cc2)N1c1nc2ccc(OC(F)(F)F)cc2s1 (racemic)	750
O=C1CSC(c2c(Cl)cccc2Cl)N1c1nc2ccc(OC(F)(F)F)cc2s1 (racemic)	500
CN[C@@H]1[C@H](O[C@H]2[C@H](O[C@H]3[C@H](O)[C@@H](O)[C@H](N=C(N)N)[C@@H](O)[C@@H]3N=C(N)N)O[C@@H](C)[C@]2(O)C=O)O[C@@H](CO)[C@H](O)[C@H]1O [STREPTOMYCIN]	300
O=C1CSC(c2ccc(Cl)cc2Cl)N1c1nc2ccc(OC(F)(F)F)cc2s1 (racemic)	500

Using known records, supply MBC for COc1ccc(C2SCC(=O)N2c2nc3ccc(OC(F)(F)F)cc3s2)cc1 (racemic)
500

---

Measured MBC values are reported for all entries that follow.
tested on: Pseudomonas aeruginosa; test: Anti-infective activity against Pseudomonas aeruginosa PAO1 assessed as reduction in bacterial growth by microdilution method; type: functional
Respond numerically; units are µg/mL and should not be typed.

molecule	assay target	outcome measure	value unit	observed result
COc1ccc(C2SCC(=O)N2c2nc3ccc(OC(F)(F)F)cc3s2)cc1 (racemic)	Pseudomonas aeruginosa	MBC	µg/mL	250
O=C1CSC(c2c(F)cccc2F)N1c1nc2ccc(OC(F)(F)F)cc2s1 (racemic)	Pseudomonas aeruginosa	MBC	µg/mL	500
O=C1CSC(c2c(F)cccc2Cl)N1c1nc2ccc(OC(F)(F)F)cc2s1 (racemic)	Pseudomonas aeruginosa	MBC	µg/mL	250

Please report MBC with Pseudomonas aeruginosa for item CN[C@@H]1[C@H](O[C@H]2[C@H](O[C@H]3[C@H](O)[C@@H](O)[C@H](N=C(N)N)[C@@H](O)[C@@H]3N=C(N)N)O[C@@H](C)[C@]2(O)C=O)O[C@@H](CO)[C@H](O)[C@H]1O .
100

Jot down MBC (Pseudomonas aeruginosa) of O=C1CSC(c2cccc(Cl)c2Cl)N1c1nc2ccc(OC(F)(F)F)cc2s1 (racemic) .
120

Report measured MBC on Pseudomonas aeruginosa; entry: O=C1CSC(c2ccc(F)cc2)N1c1nc2ccc(OC(F)(F)F)cc2s1 (racemic)
500

State the measured MBC (Pseudomonas aeruginosa) of O=C1CSC(c2ccc(Cl)cc2)N1c1nc2ccc(OC(F)(F)F)cc2s1 (racemic)
250

Jot down MBC (Pseudomonas aeruginosa) of O=C1CSC(c2ccc([N+](=O)[O-])cc2)N1c1nc2ccc(OC(F)(F)F)cc2s1 (racemic) .
250

# return MBC for O=C1CSC(c2c(Cl)cccc2Cl)N1c1nc2ccc(OC(F)(F)F)cc2s1 (racemic) , test system: Pseudomonas aeruginosa
250

Return reported MBC for target or system Pseudomonas aeruginosa, item O=C1CSC(c2ccc(O)cc2)N1c1nc2ccc(OC(F)(F)F)cc2s1 (racemic) .
500

Find MBC for O=C1CSC(c2ccc(Cl)cc2Cl)N1c1nc2ccc(OC(F)(F)F)cc2s1 (racemic) on Pseudomonas aeruginosa and write it down.
1000

---

test system: Pseudomonas aeruginosa; experiment: Anti-infective activity against Pseudomonas aeruginosa ATCC 27853 assessed as reduction in bacterial growth by microdilution method; assay type: functional
outcome measure: MIC (µg/mL)
Hi! Could you send only the number? It should be in µg/mL, unit omitted.

compound	value unit	observed result
O=C1CSC(c2ccc(F)cc2)N1c1nc2ccc(OC(F)(F)F)cc2s1 (racemic)	µg/mL	250
CN[C@@H]1[C@H](O[C@H]2[C@H](O[C@H]3[C@H](O)[C@@H](O)[C@H](N=C(N)N)[C@@H](O)[C@@H]3N=C(N)N)O[C@@H](C)[C@]2(O)C=O)O[C@@H](CO)[C@H](O)[C@H]1O	µg/mL	100
O=C1CSC(c2ccc(Cl)cc2)N1c1nc2ccc(OC(F)(F)F)cc2s1 (racemic)	µg/mL	250

Give the reported value of MIC for this record: O=C1CSC(c2ccc(Cl)cc2Cl)N1c1nc2ccc(OC(F)(F)F)cc2s1 (racemic)
250
